# experimental-system: Muscarinic acetylcholine receptor M5 (Homo sapiens)
# Sequence (P08912 whole entry): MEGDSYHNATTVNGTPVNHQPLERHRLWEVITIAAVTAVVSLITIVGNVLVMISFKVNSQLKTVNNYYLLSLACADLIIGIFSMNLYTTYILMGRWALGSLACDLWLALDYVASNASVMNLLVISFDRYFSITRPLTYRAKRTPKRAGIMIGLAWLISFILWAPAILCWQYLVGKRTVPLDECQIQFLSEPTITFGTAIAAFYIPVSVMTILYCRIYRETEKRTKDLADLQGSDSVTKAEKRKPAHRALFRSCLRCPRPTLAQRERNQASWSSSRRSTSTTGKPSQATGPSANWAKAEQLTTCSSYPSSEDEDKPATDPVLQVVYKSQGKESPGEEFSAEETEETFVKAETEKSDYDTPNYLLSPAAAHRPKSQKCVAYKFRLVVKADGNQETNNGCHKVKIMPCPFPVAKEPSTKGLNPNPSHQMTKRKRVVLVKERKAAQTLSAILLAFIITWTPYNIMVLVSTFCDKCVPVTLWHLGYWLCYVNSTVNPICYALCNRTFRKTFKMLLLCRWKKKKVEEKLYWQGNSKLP
# procedure-text: biochemical
# Description: Displacement of [3H]-4-DAMP from human muscarinic M5 receptor expressed in BHK-21 cells
experimental-readout: pKi
Give bare numbers, as −log10 of the molar value.

I would be grateful if you could provide pKi for each of the following entries.
1. O=C(Cc1ccccc1)NC1CCN(CCCN2C(=O)COc3ccccc32)CC1
2. Clc1ccc2c(c1)N=C(N1CCNCC1)c1ccccc1N2 [N-DESMETHYLCLOZAPINE]
3. Cc1ccccc1CN1CCC(N2CCC(n3c(=O)[nH]c4ccccc43)CC2)CC1

1. 5.05
2. 7.29
3. 6.03
